Hello, the source for this data is PubChem BioAssay (NCI), in case you need it.

# Tested on: MDA-MB-468 breast
# assay explanation: NCI-60 one-dose screen, 48 h (100 = growth as untreated, 0 = no growth, -100 = all killed)
# applied conditions: 10 µM unless noted
# Procedure: Growth inhibition of the MDA-MB-468 human Breast tumor cell line is measured as a screen for anti-cancer activity. Cells are grown in 96 well plates and exposed to the test compound for 48 hours. Compounds are tested at a single concentration, which is 10^-5 M for most compounds. The reported endpoint is percent growth (GI% or GIPRCNT), where numbers from 0 - 100% represent growth inhibition, and numbers from -100% - 0 represent cell death. […]
Compounds without any hit were thinned out: in the full panel of roughly 83,000, 20% have a hit.
Below is a list of entries, each paired with its recorded growth value.
Numeric answer only, unit % assumed.

Before answering, review these 5 worked examples.
compound	growth / %
COC1/C=C/OC2(C)Oc3c(C)c(O)c4c(O)c(c(/C=N/N(c5ccccc5)c5ccccc5)c(O)c4c3C2=O)NC(=O)C(C)=C/C=C/C(C)C(O)C(C)C(O)C(C)C(OC(C)=O)C1C (centres undefined)	-44.7
CSc1ccc(OC(C)=O)cc1C	93.8
CNC(=O)c1cc(Oc2cccc3nc(NC(=O)Nc4cc(C(F)(F)F)ccc4Cl)ccc23)ccn1	111
CC(C)(C)n1nnnc1C(Nc1cccc2c1OCO2)c1cc2cccc3ccc4cccc1c4c32 (centres undefined)	51.7
CCCCCc1ccnc(CC(=O)c2ccc(OC)cc2)c1	65.5

query: Give the measured growth of CC(C)(C)C(=O)OCOP(=O)(OCOC(=O)C(C)(C)C)C1CCCN(OC(=O)c2ccccc2)C1=O (centres undefined) .
result: 29.6

query: Would you mind telling me what growth value was observed for "CCOC(=O)C1=C(C)NC(C)=C(C(=O)OCC)C1c1cc(Br)c(O)c(OC)c1" ?
result: 20.4

query: // growth lookup, key: "Cc1cc(=O)n(Nc2ccccc2)c(O)c1C#N"
result: 108

query: Which growth reading was recorded for the compound O=C(/C=C\c1ccccc1)N1c2ccccc2CC1c1c[nH]c2ccccc12 (centres undefined) ?
result: 80.6
